pIC50: −log10 of the molar value.
Literature compilation of pIC50 measurements on Prostaglandin G/H synthase 2 (Mus musculus, UniProt Q05769).
Sequence (Q05769 whole entry): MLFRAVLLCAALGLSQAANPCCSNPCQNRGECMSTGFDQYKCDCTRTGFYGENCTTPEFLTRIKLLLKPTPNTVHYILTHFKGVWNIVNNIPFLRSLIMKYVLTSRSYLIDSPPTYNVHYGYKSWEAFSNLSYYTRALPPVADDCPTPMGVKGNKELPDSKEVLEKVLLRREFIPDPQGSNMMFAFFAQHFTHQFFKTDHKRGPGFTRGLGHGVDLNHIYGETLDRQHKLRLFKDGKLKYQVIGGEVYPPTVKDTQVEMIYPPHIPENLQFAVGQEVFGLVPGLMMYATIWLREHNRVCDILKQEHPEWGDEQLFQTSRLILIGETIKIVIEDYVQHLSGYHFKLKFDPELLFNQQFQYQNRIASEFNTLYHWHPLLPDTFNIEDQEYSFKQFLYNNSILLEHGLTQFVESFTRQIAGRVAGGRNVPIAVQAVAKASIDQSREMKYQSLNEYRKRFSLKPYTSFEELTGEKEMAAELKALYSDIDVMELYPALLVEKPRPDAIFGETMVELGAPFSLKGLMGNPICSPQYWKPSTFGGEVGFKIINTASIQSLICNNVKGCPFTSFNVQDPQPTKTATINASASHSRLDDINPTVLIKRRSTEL

- compound: "O=C(NS(=O)(=O)c1ccc(Cl)cc1)c1cccnc1"
  comparison operator: "="
  pIC50: 5.18
- compound: "COc1ccc(C2=C(c3ccc(Br)cc3)C(=O)OC2)cc1"
  comparison operator: "="
  pIC50: 6.35
- compound: "CCC1(C)OC(c2ccc(S(C)(=O)=O)cc2)=C(c2cc(Cl)cc(Cl)c2)C1=O (stereo unspecified)"
  comparison operator: "="
  pIC50: 7.15
- compound: "Fc1ccc(-c2[nH]c(-c3ccc(F)cc3)c3c2CCC3)cc1"
  comparison operator: "="
  pIC50: 8.54
- compound: "NS(=O)(=O)c1ccc(-c2oc3ccccc3c(=O)c2-c2ccc3c(c2)OCO3)cc1"
  comparison operator: "="
  pIC50: 6.03
- compound: "CCOC(=O)[C@H](OCC)c1cc(-c2ccc(S(C)(=O)=O)cc2)n(-c2ccccc2)c1C"
  comparison operator: "="
  pIC50: 6.85
- compound: "O=C1OCC(c2ccc(O)cc2)=C1c1cccc(F)c1"
  comparison operator: "<"
  pIC50: 4.60
- compound: "O=C1OCC(c2ccc(F)cc2)=C1c1ccc(O)cc1"
  comparison operator: "<"
  pIC50: 4.60
- compound: "O=C1OCC(c2ccc(F)cc2)=C1c1ccc(Cl)cc1"
  comparison operator: "<"
  pIC50: 4.60
- compound: "CS(=O)(=O)c1ccc(-c2oc3ccccc3c(=O)c2-c2cc3ccccc3s2)cc1"
  comparison operator: "="
  pIC50: 6.48
- compound: "O=C1OCC(c2ccccc2F)=C1c1ccc(Br)cc1"
  comparison operator: "<"
  pIC50: 4.60
